System: Yap1 mRNA
Experiment: Antisense inhibition of human Yap1 in A-431 cells by cEt gapmers, single dose (Example 2, RTS4814)
Format: cell-based
Settings: Table 25; Yap1 mRNA as percent of untreated control; 3-10-3 cEt gapmers targeting SEQ ID NO.: 1, and 2
Strand notation (5' to 3'): a small letter for the sugar, then the base; units joined by * are phosphorothioate-linked, units joined directly phosphodiester-linked; [ ] holds rarer units or linkages, { } end groups; capitals alone tell only the bases. k = constrained ethyl (cEt); [5mC] = 5-methylcytosine; d = 2'-deoxy (DNA)
So basically every entry gets a class from its YAP1 (% UTC), ranges being band A (below 10 % UTC), band B (10 % UTC to below 60 % UTC), band C (60 % UTC or more)

Use these answered entries as a reference point.
1076523 (antisense kA*kT*kT*dT*dA*dT*dA*dT*d[5mC]*dA*dG*dG*dT*k[5mC]*kA*kA) [Compound 1076523] : band A
1076235 (kT*k[5mC]*kA*dA*dA*dA*dT*dA*dA*dT*d[5mC]*dA*dG*k[5mC]*k[5mC]*k[5mC]; antisense) [Compound 1076235] : band B
1074539 (antisense k[5mC]*kT*kA*dT*d[5mC]*d[5mC]*dA*d[5mC]*dA*dG*dT*dA*dA*kT*kA*kG) [Compound 1074539] : band C
1075499 (kG*k[5mC]*kT*dA*dA*dA*dA*dA*dA*dT*dG*dA*dG*kT*kA*kG; antisense) [Compound 1075499] : band C

Data request: Class label required: 1075371 (k[5mC]*kT*kG*d[5mC]*dA*dA*dA*dA*dG*dT*dT*d[5mC]*dT*kT*kA*k[5mC]; antisense) [Compound 1075371]
Data returned: band C

Data request: Band of 1075243 (antisense k[5mC]*kT*kT*dA*dG*dT*dA*dA*dG*dA*dA*dT*dT*kG*kT*k[5mC]) [Compound 1075243] ?
Data returned: band A

Data request: Entry 1074667 (antisense k[5mC]*k[5mC]*k[5mC]*dA*dA*d[5mC]*dA*dA*d[5mC]*dA*dT*dG*d[5mC]*kT*kA*kT) [Compound 1074667] belongs to which category?
Data returned: band B

Data request: Exam item: assign 1075979 (k[5mC]*kA*kT*dA*dA*dT*d[5mC]*d[5mC]*dA*d[5mC]*dT*dA*dT*kG*k[5mC]*kA; antisense) [Compound 1075979] to the correct category.
Data returned: band B

Data request: Category lookup for the substance 1075531 (k[5mC]*kT*kT*dA*dA*dT*dA*dG*dT*dT*dT*dA*dA*k[5mC]*k[5mC]*kT; antisense) [Compound 1075531]
Data returned: band C

Data request: Hi, small favor: classify 1074795 (k[5mC]*k[5mC]*kA*dA*dA*dT*d[5mC]*dA*dA*dT*dG*dT*dG*k[5mC]*kT*k[5mC]; antisense) [Compound 1074795] by its YAP1 (% UTC) when you get a moment.
Data returned: band A

Data request: Could you tell me which band 1074283 (antisense kA*kA*kA*dA*d[5mC]*dG*dA*dG*dG*dG*dT*d[5mC]*dA*kA*kG*k[5mC]) [Compound 1074283] belongs to?
Data returned: band B
